Can you tell me MIC for the items I'm about to list?
Tested on: Candida albicans
Test: Antifungal activity against Candida albicans ATCC 76615 incubated for 72 hrs in presence of fluconazole by checker board assay
Type: functional
Please report the result as a number followed by the unit.

Q) Record request: MIC value, item O=C(/C=C/C(=O)N1CCCC12Cc1ccccc1NC2=O)Nc1cccc([N+](=O)[O-])c1 (centres undefined)
A) 1 µg/mL

Q) Record request: MIC value, item O=C(/C=C/C(=O)N1CCCC12Cc1ccccc1NC2=O)Nc1ccc(Cl)c(F)c1 (centres undefined)
A) 0.5 µg/mL

Q) Record request: MIC value, item O=C(/C=C/C(=O)N1CCCC12Cc1ccccc1NC2=O)Nc1ccccc1[N+](=O)[O-] (centres undefined)
A) 2 µg/mL

Q) Record request: MIC value, item O=C(/C=C/C(=O)N1CCCC12Cc1ccccc1NC2=O)Nc1ccc(F)cc1 (centres undefined)
A) 2 µg/mL

* * *

Tested on: Aspergillus flavus
Assay: Antifungal activity against Aspergillus flavus ATCC 16870 assessed as reduction in fungal growth incubated for 24 hrs by two fold broth dilution method
Type: functional
MEASURED ATTRIBUTE: MIC (µg/mL)
Only the number, expressed in µg/mL, is required.

Q) Record request: MIC value, item COc1ccc(NC(=O)/C=C/C(=O)N2CCCC23Cc2ccccc2NC3=O)cc1 (stereo not given)
A) 32

Q) Record request: MIC value, item NC(=O)OC[C@H](O)[C@@H](O)[C@H](N)C(=O)N[C@H](C(=O)O)[C@H]1O[C@@H](n2cc(CO)c(=O)[nH]c2=O)[C@H](O)[C@@H]1O
A) 8

Q) Record request: MIC value, item O=C(/C=C/C(=O)N1CCCC12Cc1ccccc1NC2=O)Nc1cccc([N+](=O)[O-])c1 (stereo not given)
A) 4

Q) Record request: MIC value, item O=C(/C=C/C(=O)N1CCCC12Cc1ccccc1NC2=O)Nc1ccccc1[N+](=O)[O-] (stereo not given)
A) 4

Q) Record request: MIC value, item Cc1cccc(NC(=O)/C=C/C(=O)N2CCCC23Cc2ccccc2NC3=O)c1 (stereo not given)
A) 32
